Tested on: human acute mononuclear granulocyte leukemia (THP-1)
experimental.details: Cytotoxicity, MTT assay, THP-1
Format: cell-based
experimental.context: quotient of the IC50 values towards nonmalignant LO2 cells
quantity.measured: THP-1 SI

>>> value_observed("CN1C/C(=C\\c2cccc(N)c2)C(=O)/C(=C/c2cccc(N)c2)C1 [2b]")
11.5
>>> value_observed("O=C1/C(=C/c2cc(/N=C/c3ccc(O)c(O)c3O)ccc2F)CNC/C1=C\\c1cc(/N=C/c2ccc(O)c(O)c2O)ccc1F [5c]")
17.0
>>> value_observed("O=C1/C(=C/c2cc(/N=C/c3cccc(O)c3O)ccc2F)CNC/C1=C\\c1cc(/N=C/c2cccc(O)c2O)ccc1F [5a]")
18.5
>>> value_observed("O=C1/C(=C/c2cccc(/N=C/c3cc(Br)ccc3O)c2)CCC/C1=C\\c1cccc(/N=C/c2cc(Br)ccc2O)c1 [3c]")
2.3
>>> value_observed("O=C1/C(=C/c2cccc(/N=C/c3cc(F)ccc3O)c2)CCC/C1=C\\c1cccc(/N=C/c2cc(F)ccc2O)c1 [3b]")
10.5
>>> value_observed("CN1C/C(=C\\c2cccc(/N=C/c3cc(Br)ccc3O)c2)C(=O)/C(=C/c2cccc(/N=C/c3cc(Br)ccc3O)c2)C1 [4c]")
5.1
>>> value_observed("CN1C/C(=C\\c2cc(/N=C/c3cccc(O)c3O)ccc2F)C(=O)/C(=C/c2cc(/N=C/c3cccc(O)c3O)ccc2F)C1 [6a]")
14.2

---

Tested on: human gastric adenocarcinoma cells (SGC7901)
experimental.details: Cytotoxicity, MTT assay, SGC7901
Format: cell-based
experimental.context: quotient of the IC50 values towards nonmalignant LO2 cells
Outcome: label 1 for SGC7901 SI of at least 6; label 0 for anything lower.

>>> category("CN1C/C(=C\\c2cc(/N=C/c3cc(O)ccc3O)ccc2F)C(=O)/C(=C/c2cc(/N=C/c3cc(O)ccc3O)ccc2F)C1")
"label 1"
>>> category("COc1cc(Br)cc(/C=N/c2cccc(/C=C3\\CCC/C(=C\\c4cccc(/N=C/c5cc(Br)cc(OC)c5O)c4)C3=O)c2)c1O")
"label 0"
>>> category("O=C1/C(=C/c2cccc(/N=C/c3cc(Br)ccc3O)c2)CCC/C1=C\\c1cccc(/N=C/c2cc(Br)ccc2O)c1")
"label 0"
>>> category("O=C1/C(=C/c2cc(/N=C/c3ccc(O)c(O)c3O)ccc2F)CNC/C1=C\\c1cc(/N=C/c2ccc(O)c(O)c2O)ccc1F")
"label 1"
>>> category("COc1cc(Br)cc(/C=N/c2cccc(/C=C3\\CN(C)C/C(=C\\c4cccc(/N=C/c5cc(Br)cc(OC)c5O)c4)C3=O)c2)c1O")
"label 0"
>>> category("O=C1/C(=C/c2cc(/N=C/c3cc(O)ccc3O)ccc2F)CNC/C1=C\\c1cc(/N=C/c2cc(O)ccc2O)ccc1F")
"label 1"
>>> category("CN1C/C(=C\\c2cc(/N=C/c3ccc(O)c(O)c3O)ccc2F)C(=O)/C(=C/c2cc(/N=C/c3ccc(O)c(O)c3O)ccc2F)C1")
"label 1"
>>> category("O=C1/C(=C/c2cc(/N=C/c3cccc(O)c3O)ccc2F)CNC/C1=C\\c1cc(/N=C/c2cccc(O)c2O)ccc1F")
"label 1"
>>> category("CN1C/C(=C\\c2cccc(N)c2)C(=O)/C(=C/c2cccc(N)c2)C1")
"label 0"
>>> category("O=C1/C(=C/c2cccc(/N=C/c3ccccc3O)c2)CCC/C1=C\\c1cccc(/N=C/c2ccccc2O)c1")
"label 0"
>>> category("COc1ccc(/C=N/c2cccc(/C=C3\\CN(C)C/C(=C\\c4cccc(/N=C/c5ccc(OC)cc5O)c4)C3=O)c2)c(O)c1")
"label 0"
>>> category("O=C1/C(=C/c2cccc(/N=C/c3cc(F)ccc3O)c2)CCC/C1=C\\c1cccc(/N=C/c2cc(F)ccc2O)c1")
"label 1"
>>> category("CN1C/C(=C\\c2cccc(/N=C/c3ccccc3O)c2)C(=O)/C(=C/c2cccc(/N=C/c3ccccc3O)c2)C1")
"label 0"
>>> category("CN1C/C(=C\\c2cc(/N=C/c3cccc(O)c3O)ccc2F)C(=O)/C(=C/c2cc(/N=C/c3cccc(O)c3O)ccc2F)C1")
"label 1"

---

Tested on: human normal heptical cell line (LO2)
experimental.details: Cytotoxicity, MTT assay, non-malignant LO2
Type: cell-based
experimental.context: 24 hours, non-malignant cells
quantity.measured: IC50 (µM)

>>> value_observed("COc1cc(/C=C/C(=O)CC(=O)/C=C/c2ccc(O)c(OC)c2)ccc1O [Curcumin, reference compound]")
27.5
>>> value_observed("Nc1cccc(/C=C2\\CCC/C(=C\\c3cccc(N)c3)C2=O)c1")
28.2
>>> value_observed("O=C1/C(=C/c2cccc(/N=C/c3ccccc3O)c2)CCC/C1=C\\c1cccc(/N=C/c2ccccc2O)c1")
18.2

---

Tested on: human lung carcinoma cells (A549)
experimental.details: Cytotoxicity, MTT assay, A549
Assay type: cell-based
experimental.context: Homo sapiens, A549; MTT, 24 hours
IC50 less than 3 µM is Fulfilled; IC50 greater than or equal to 3 µM is Not fulfilled.

>>> category("CN1C/C(=C\\c2cccc(/N=C/c3ccccc3O)c2)C(=O)/C(=C/c2cccc(/N=C/c3ccccc3O)c2)C1 [4a]")
"Not fulfilled"
>>> category("Nc1ccc(F)c(/C=C2\\CNC/C(=C\\c3cc(N)ccc3F)C2=O)c1 [2c]")
"Not fulfilled"
>>> category("O=C1/C(=C/c2cccc(/N=C/c3cc(Br)ccc3O)c2)CCC/C1=C\\c1cccc(/N=C/c2cc(Br)ccc2O)c1 [3c]")
"Not fulfilled"
>>> category("COc1ccc(/C=N/c2ccc(F)c(/C=C3\\CNC/C(=C\\c4cc(/N=C/c5ccc(OC)cc5O)ccc4F)C3=O)c2)c(O)c1 [5d]")
"Fulfilled"
>>> category("COc1cccc2c1C(=O)c1c(O)c3c(c(O)c1C2=O)C[C@@](O)(C(=O)CO)C[C@@H]3O[C@H]1C[C@H](N)[C@H](O)[C@H](C)O1 [DOX, Doxorubicin, reference compound]")
"Not fulfilled"

Recorded values, source paper PMC6327999.
